STUDY_TARGET: Histone deacetylase 4 (Homo sapiens, UniProt P56524)
Sequence (P56524 whole entry): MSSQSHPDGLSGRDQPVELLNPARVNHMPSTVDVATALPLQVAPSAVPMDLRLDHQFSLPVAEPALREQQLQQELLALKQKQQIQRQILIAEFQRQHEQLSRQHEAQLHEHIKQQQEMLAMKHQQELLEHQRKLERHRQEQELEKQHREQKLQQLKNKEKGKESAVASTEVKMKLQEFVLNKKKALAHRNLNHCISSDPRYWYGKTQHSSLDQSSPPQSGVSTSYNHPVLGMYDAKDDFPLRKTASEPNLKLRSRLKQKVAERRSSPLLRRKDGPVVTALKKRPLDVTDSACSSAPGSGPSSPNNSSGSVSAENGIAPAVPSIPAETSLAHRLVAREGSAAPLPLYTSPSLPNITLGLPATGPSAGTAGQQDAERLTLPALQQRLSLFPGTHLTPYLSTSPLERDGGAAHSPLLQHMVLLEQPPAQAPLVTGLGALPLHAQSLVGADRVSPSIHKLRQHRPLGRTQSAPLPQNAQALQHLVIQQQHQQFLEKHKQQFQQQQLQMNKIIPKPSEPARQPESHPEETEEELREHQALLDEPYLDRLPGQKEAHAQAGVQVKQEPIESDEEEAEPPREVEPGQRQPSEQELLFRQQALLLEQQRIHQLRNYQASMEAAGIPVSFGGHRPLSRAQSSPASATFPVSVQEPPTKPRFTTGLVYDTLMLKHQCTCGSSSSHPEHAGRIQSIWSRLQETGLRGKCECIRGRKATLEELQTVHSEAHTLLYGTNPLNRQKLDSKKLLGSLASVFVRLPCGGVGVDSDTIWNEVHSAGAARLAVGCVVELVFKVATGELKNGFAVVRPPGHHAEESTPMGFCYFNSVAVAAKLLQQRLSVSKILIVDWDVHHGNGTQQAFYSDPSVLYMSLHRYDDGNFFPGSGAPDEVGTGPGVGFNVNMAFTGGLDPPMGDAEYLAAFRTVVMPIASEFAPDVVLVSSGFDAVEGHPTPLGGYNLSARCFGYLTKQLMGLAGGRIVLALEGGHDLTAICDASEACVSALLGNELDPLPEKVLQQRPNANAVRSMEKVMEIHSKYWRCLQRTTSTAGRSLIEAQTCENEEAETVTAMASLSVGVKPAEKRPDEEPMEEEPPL
pIC50: −log10 of the molar value. Where a SMILES comes first, the peptide text is derived from it. [ ]: non-standard residue; d: D form. The star is where a group is joined. Asu = N[C@@H](CCCCCC(=O)O)C(=O)O; dAhp(2) = CCCCC[C@@H](N)C(=O)O; Ahp(2) = CCCCC[C@H](N)C(=O)O; NHOH = ON*
VALUE_TYPE: pIC50

MOLECULE	ASSAY_VALUE
O=C(CCCCC[C@@H]1NC(=O)[C@H]2CCCN2C(=O)[C@@H]2CCCCCCCCCCCC[C@@H](NC1=O)C(=O)N2)NO	8.30

I = CCCCC[C@@H]1NC(=O)[C@@H](CCCCC)NC(=O)[C@H](CCCCCC(=O)NO)NC(=O)[C@H]2CCCN2C1=O (cyclo([Ahp(2)][dP][Asu](NHOH)[dAhp(2)]))
II = O=C(CCCCC[C@@H]1NC(=O)[C@H]2CCCN2C(=O)[C@@H]2CCCCCCCCC[C@@H](NC1=O)C(=O)N2)NO
Between I and II , whose recorded pIC50 is greater? State the label of the item chosen.
II
(II: 8.27, I: 7.92)

* * *

STUDY_TARGET: Histone deacetylase 1 (Homo sapiens, UniProt Q13547)
Sequence (Q13547 whole entry): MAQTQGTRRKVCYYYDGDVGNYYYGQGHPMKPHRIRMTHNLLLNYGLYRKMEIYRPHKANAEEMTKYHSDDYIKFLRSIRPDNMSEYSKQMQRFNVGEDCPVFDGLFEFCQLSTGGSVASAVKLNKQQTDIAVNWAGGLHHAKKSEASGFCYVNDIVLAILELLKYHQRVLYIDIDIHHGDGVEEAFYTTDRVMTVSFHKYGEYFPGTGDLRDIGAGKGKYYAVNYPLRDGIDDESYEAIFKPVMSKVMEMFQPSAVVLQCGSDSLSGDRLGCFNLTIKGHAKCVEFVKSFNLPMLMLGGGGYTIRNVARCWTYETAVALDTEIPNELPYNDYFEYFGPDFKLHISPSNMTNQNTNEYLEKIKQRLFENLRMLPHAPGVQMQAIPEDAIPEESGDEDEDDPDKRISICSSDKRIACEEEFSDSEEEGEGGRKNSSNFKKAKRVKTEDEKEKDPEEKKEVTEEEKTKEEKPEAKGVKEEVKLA
Where a SMILES comes first, the peptide text is derived from it. [ ]: non-standard residue; d: D form. The star is where a group is joined. Asu = N[C@@H](CCCCCC(=O)O)C(=O)O; dAhp(2) = CCCCC[C@@H](N)C(=O)O; Ahp(2) = CCCCC[C@H](N)C(=O)O; NHOH = ON*
VALUE_TYPE: IC50 (nM)

COMPOUND	OUTPUT_UNIT	IC50
O=C(CCCCC[C@@H]1NC(=O)[C@H]2CCCN2C(=O)[C@@H]2CCCCCCCCC[C@@H](NC1=O)C(=O)N2)NO	nM	9.1
O=C(CCCCC[C@@H]1NC(=O)[C@H]2CCCN2C(=O)[C@@H]2CCCCCCCCCC[C@@H](NC1=O)C(=O)N2)NO	nM	9.1

a = O=C(CCCCC[C@@H]1NC(=O)[C@H]2CCCN2C(=O)[C@@H]2CCCCCCCCCCC[C@@H](NC1=O)C(=O)N2)NO
b = CCCCC[C@@H]1NC(=O)[C@@H](CCCCC)NC(=O)[C@H](CCCCCC(=O)NO)NC(=O)[C@H]2CCCN2C1=O (cyclo([Ahp(2)][dP][Asu](NHOH)[dAhp(2)]))
Between a and b , whose recorded IC50 is greater? State the label of the item chosen.
b

* * *

This document collects EC1000 values reported for Histone deacetylase 4 (Homo sapiens, UniProt P56524).
Where a SMILES comes first, the peptide text is derived from it. [ ]: non-standard residue; d: D form. The star is where a group is joined. Asu = N[C@@H](CCCCCC(=O)O)C(=O)O; dAhp(2) = CCCCC[C@@H](N)C(=O)O; Ahp(2) = CCCCC[C@H](N)C(=O)O; NHOH = ON*
VALUE_TYPE: EC1000 (nM)

COMPOUND	OUTPUT_UNIT	ASSAY_VALUE
O=C(CCCCC[C@@H]1NC(=O)[C@H]2CCCN2C(=O)[C@@H]2CCCCCCCCCCCC[C@@H](NC1=O)C(=O)N2)NO	nM	2

1 = CC(/C=C/C(=O)NO)=C\[C@@H](C)C(=O)c1ccc(N(C)C)cc1
2 = O=C(CCCCC[C@@H]1NC(=O)[C@H]2CCCN2C(=O)[C@@H]2CCCCCCCCCCC[C@@H](NC1=O)C(=O)N2)NO
3 = O=C(CCCCC[C@@H]1NC(=O)[C@H]2CCCN2C(=O)[C@@H]2CCCCCCCCCC[C@@H](NC1=O)C(=O)N2)NO
4 = CCCCC[C@@H]1NC(=O)[C@@H](CCCCC)NC(=O)[C@H](CCCCCC(=O)NO)NC(=O)[C@H]2CCCN2C1=O (cyclo([Ahp(2)][dP][Asu](NHOH)[dAhp(2)]))
5 = O=C(CCCCC[C@@H]1NC(=O)[C@H]2CCCN2C(=O)[C@@H]2CCCCCCCCC[C@@H](NC1=O)C(=O)N2)NO
Output the entries ranked by EC1000 from maximum down to minimum. Answer format: the labels, in the requested order.
5, 1, 4, 3, 2
(5: 92 nM, 1: 20 nM, 4: 13 nM, 3: 7.2 nM, 2: 2.6 nM)
